# Target Or System: EphB2-EphrinA5 (Mus musculus, UniProt P54763)
# Sequence (P54763 19-543 limits assumed): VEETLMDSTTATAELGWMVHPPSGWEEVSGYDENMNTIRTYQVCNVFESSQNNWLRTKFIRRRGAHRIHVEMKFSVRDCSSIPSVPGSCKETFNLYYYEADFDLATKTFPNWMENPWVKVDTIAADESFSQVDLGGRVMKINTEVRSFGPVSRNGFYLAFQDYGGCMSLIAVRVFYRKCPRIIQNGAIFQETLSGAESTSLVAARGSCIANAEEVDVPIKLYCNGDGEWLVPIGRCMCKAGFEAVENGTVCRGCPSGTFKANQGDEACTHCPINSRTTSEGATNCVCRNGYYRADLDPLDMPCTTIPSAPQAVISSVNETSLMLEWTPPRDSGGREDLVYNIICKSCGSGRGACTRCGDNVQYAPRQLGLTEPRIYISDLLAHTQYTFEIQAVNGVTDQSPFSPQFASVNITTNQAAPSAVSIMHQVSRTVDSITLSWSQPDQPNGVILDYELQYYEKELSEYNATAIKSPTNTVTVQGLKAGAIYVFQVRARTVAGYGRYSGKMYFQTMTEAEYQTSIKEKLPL
# Experimental Protocol: Octet, immobilized EphB2 binding to human EphrinA5
# Experimental Conditions: mEphB2-hEphrinA5; immobilized mouse EphB2; 50 nM soluble human EphrinA5; association; absolute; read-out: Absolute Association IC50
Quick reference: pIC50 of the listed items.
pIC50 is defined as minus the log10 of a concentration measured in mol/L.

Observe how each entry below is paired with its result.
O=[N+]([O-])c1cc(CN2CCOCC2)c2cccnc2c1O 5.37
Oc1ccc(CN2CCN(Cc3ccc(C(F)(F)F)cc3)CC2)c2cccnc12 5.08

Please list pIC50 recorded for the compound "Oc1c(Br)cc(CN2CCOCC2)c2cccnc12" 6.24

Please list pIC50 recorded for the compound "O=S1(=O)CCN(Cc2ccc(O)c3ncccc23)CC1" 5.15

---

# Target Or System: EphB4-EphrinB2 (Mus musculus)
# Construct: biosensor immobilized rodent EphB1-Fc and EphB4-Fc ectodomain proteins; mouse EB2-His residues 18-232; purchased R&D Systems (EphB-Fc); Sino Biologicals (EphrinB-His)
# Sequence (P54761 16-539 limits assumed): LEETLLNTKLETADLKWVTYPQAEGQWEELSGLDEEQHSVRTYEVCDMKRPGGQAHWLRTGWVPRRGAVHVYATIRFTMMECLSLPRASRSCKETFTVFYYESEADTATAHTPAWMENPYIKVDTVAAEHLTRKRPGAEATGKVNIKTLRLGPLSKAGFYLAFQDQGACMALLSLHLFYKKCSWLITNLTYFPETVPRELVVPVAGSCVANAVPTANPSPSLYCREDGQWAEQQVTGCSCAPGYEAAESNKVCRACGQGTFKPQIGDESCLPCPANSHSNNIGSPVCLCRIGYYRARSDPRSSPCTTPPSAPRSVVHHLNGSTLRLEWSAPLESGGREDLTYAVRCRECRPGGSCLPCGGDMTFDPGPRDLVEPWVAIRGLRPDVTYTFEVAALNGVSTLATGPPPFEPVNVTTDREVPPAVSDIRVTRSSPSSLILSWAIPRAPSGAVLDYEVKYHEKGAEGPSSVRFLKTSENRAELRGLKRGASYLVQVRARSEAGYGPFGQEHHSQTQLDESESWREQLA
# Experimental Protocol: Octet RED384, immobilized mouse EphB4-Fc binding to mouse EB2-His
# Experimental Conditions: mEphB4-mEphrinB2; immobilized mouse EphB4; 50 nM soluble mouse EphrinB2; dissociation; absolute; read-out: Absolute Dissociation IC50
Quick reference: IC50 of the listed items.
Give your result in µM as a bare value.

O=S1(=O)CCN(Cc2ccc(O)c3ncccc23)CC1 13.2
Oc1ccc(CN2CCOCC2)c2cccnc12 100
Oc1c(Br)cc(CN2CCOCC2)c2cccnc12 0.41
Oc1c(Cl)cc(CN2CCOCC2)c2cccnc12 0.84

// below: IC50 requested for another molecule
Please list IC50 recorded for the molecule "O=[N+]([O-])c1cc(CN2CCOCC2)c2cccnc2c1O" 2.63

---

Quick reference: IC50 of the listed items.
# Target Or System: EphrinB2-EphB4 (Homo sapiens)
# Construct: soluble human EphB1-His, EphB2-His, and EphB4-His ectodomains; commercially available human EphrinB1-Fc (EB1), EphrinB2-Fc (EB2), and EphrinB3-Fc (EB3) ectodomain proteins; purchased
# Experimental Protocol: Octet 80 sec association/500 sec dissociation, immobilized human EphrinB2-Fc binding to soluble human EphB4-His
# Experimental Conditions: EphB4; Association (75″); read-out: Absolute IC50

Compound	IC50
Oc1c(I)cc(CN2CCOCC2)c2cccnc12 [Compound 7, 7-iodo-5-(morpholinomethyl)quinolin-8-ol]	> 3.2 µM

// below: IC50 requested for another compound
State the measured IC50 (EphrinB2-EphB4 (Homo sapiens)) of Oc1c(Br)cc(CN2CCN(c3ccc(Br)cc3)CC2)c2cccnc12 [Compound 28] > 3.2 µM

---

Quick reference: IC50 of the listed items.
# Target Or System: EphrinB2-EphB4 (Homo sapiens, UniProt P54760)
# Construct: soluble human EphB1-His, EphB2-His, and EphB4-His ectodomains; commercially available human EphrinB1-Fc (EB1), EphrinB2-Fc (EB2), and EphrinB3-Fc (EB3) ectodomain proteins; purchased
# Sequence (P54760 16-539 limits assumed): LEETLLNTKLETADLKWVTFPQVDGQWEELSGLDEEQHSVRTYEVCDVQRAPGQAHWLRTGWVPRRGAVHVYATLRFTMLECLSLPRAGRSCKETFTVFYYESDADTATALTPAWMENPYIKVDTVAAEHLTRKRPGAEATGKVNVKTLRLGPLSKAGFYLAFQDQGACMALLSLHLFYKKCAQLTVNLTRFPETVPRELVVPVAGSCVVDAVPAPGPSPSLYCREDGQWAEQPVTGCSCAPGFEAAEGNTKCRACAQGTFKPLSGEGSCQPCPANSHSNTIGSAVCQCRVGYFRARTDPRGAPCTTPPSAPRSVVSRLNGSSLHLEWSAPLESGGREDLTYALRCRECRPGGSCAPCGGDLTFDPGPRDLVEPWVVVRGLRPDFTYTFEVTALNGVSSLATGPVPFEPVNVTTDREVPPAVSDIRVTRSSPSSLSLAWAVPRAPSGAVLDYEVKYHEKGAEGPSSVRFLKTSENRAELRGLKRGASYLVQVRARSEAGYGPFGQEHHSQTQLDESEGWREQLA
# Experimental Protocol: Octet 80 sec association/500 sec dissociation, immobilized human EphrinB2-Fc binding to soluble human EphB4-His
# Experimental Conditions: EphB4; Full AUC; read-out: Relative IC50
Give your result in µM as a bare value.

Oc1c(I)cc(CN2CCOCC2)c2cccnc12 0.89

// below: IC50 requested for another compound
Please list IC50 recorded for the compound "Oc1c(Br)cc(CN2CCN(c3ccc(Br)cc3)CC2)c2cccnc12" 0.26
